Target: T1, Nbp2, Q12163
T1 sequence (Q12163 103-180, looked up): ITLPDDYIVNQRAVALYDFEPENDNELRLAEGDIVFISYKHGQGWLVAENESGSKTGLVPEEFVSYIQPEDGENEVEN
Test: SPOT array
Details: median of control spots 357
EXPERIMENTAL ENDPOINT: SPOT intensity
Numbers only.

Check out these entries, answers already filled in.
[
  {
    "BINDER": "APKREAPKPPANTSP",
    "ENDPOINT VALUE": 139
  },
  {
    "BINDER": "KKIRLIFTYPSTVGR",
    "ENDPOINT VALUE": 258
  },
  {
    "BINDER": "EVTPKVPERPSRRKT",
    "ENDPOINT VALUE": 0
  },
  {
    "BINDER": "VPKEPAPAPPPEPDM",
    "ENDPOINT VALUE": 0
  },
  {
    "BINDER": "VDFTLPPPPPPPGLD",
    "ENDPOINT VALUE": 0
  }
]

Quick request: SPOT intensity for each listed item, please.
1. QPWTDQFEKLEKEVS
2. RRSKSLPITPKSIFN
3. HAPPLPPTAPPPPSL
4. GDHPKGPPPPPPPDE
5. LRWRHKFFLPAIAAI
6. TSFKGRPKPPKTLKH
7. IKKRNKIRLPSGSPE

Response:
0
0
0
0
0
0
24

Quick request: SPOT intensity for each listed item, please.
1. MSPLGAPPPPPHKDH
2. KRKRRLPVSEDTNTK
3. ILARAILTIPRVLDK
4. FSRRQSMDIPSKNRN
5. PHNPSPFFPPPDFND
6. RKQRSIPLSPIVPES

Response:
1. 0
2. 8
3. 17
4. 2
5. 0
6. 0
